The reported measurements were obtained from the supplement of paper PMC10065799.

Test system: c-Src;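 further: 11-residue human phosphosite peptides and single-mutation variants displayed on the E. coli surface, counted by deep sequencing, each peptide's frequency after selection divided by its frequency in the unselected input library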;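 further: frequency after pTyr selection over input frequency; kinase dosed for 20-30% of maximal phosphorylation in three min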
Assay: phosphorylation enrichment, bacterial display (enrichment ratio); higher = better substrate or ligand; peptides without Tyr show the background
Hi, to clarify the labels: yes (1) covers phosphorylation enrichment from 0.5 upward, no (0) covers anything below 0.5.

Examples from the recorded data:
DSGKLYALDVL [INO80_Y1104] : yes (1)
TYEPNYGTVKQ [RAPGEF6_Y1447] : yes (1)
RFVSRYIFNRE [HLA-DQB1_Y62_T60S_YF] : yes (1)

(Q) Check the entry MFRAGYDTKQE [F10_Y407_C404R] : does phosphorylation enrichment equal or exceed 0.5?
(A) no (0)

(Q) Let us now turn to RDHFGYRQSVT [CD55_Y245_YF]
(A) yes (1)

(Q) Let us now turn to KKYFSYAWPFY [BRDT_Y291_H288Y]
(A) no (0)
